The measurements presented in this section are drawn from patent US20260226043A1.

assay: clinical; details: human, in vivo
Value kind: concentration at 22 h

Note down concentration at 22 h recorded for Cc1cccc(C)c1CNc1cc(C(=O)NCCO)cn2c(C)c(C)nc12
≥ 240 nM
